Measured BPB FD4 (%) values are reported for all entries that follow.
Test system: JEG-3 cells
Settings: FD4 content in basolateral side after 24 h incubation with compound, then 2 h FD4; untreated BPB 1.23%
Peptide text beside a SMILES is read from it. * marks the point of attachment. X3 = C=CC1=C(C)c2cc3[nH]c(cc4nc(cc5[nH]c(cc1n2)c(C)c5CCC(=O)O)C(CCC(=O)*)=C4C)c(C)c3C=C; X2 = CCC1=C(C)c2cc3[nH]c(cc4nc(cc5[nH]c(cc1n2)c(C)c5CCC(=O)O)C(CCC(=O)*)=C4C)c(C)c3CC; X4 = CCC1=C(C)c2cc3[nH]c(cc4nc(cc5[nH]c(cc1n2)c(C)c5CCC(=O)*)C(CCC(=O)O)=C4C)c(C)c3CC
assayReadout: BPB FD4 (%)

compound | valueMeasured
C=CC1=C(C)c2cc3[nH]c(cc4nc(cc5[nH]c(cc1n2)c(C)c5CCC(=O)O)C(CCC(=O)N[C@@H](CO)C(=O)NCC(=O)N[C@H](C(=O)N[C@@H](CCC(N)=O)C(=O)N[C@@H](CCC(=O)O)C(=O)N[C@@H](CCC(=O)O)C(=O)N[C@@H](Cc1ccc(O)cc1)C(N)=O)[C@@H](C)O)=C4C)c(C)c3C=C [PP-P3] (X3-SGTQEEY-NH2) | 1.79
CCC1=C(C)c2cc3[nH]c(cc4nc(cc5[nH]c(cc1n2)c(C)c5CCC(=O)O)C(CCC(=O)NCCCC[C@H](NC(=O)[C@H](CC(C)C)NC(=O)[C@H](CO)NC(=O)[C@H](Cc1ccccc1)NC(=O)[C@H](CCCNC(=N)N)NC(=O)[C@H](CCCCN)NC(=O)[C@@H](NC(=O)[C@H](CC(C)C)NC(=O)[C@H](CCC(N)=O)NC(=O)[C@H](CCC(N)=O)NC(=O)[C@@H](N)C(C)C)[C@@H](C)O)C(N)=O)=C4C)c(C)c3CC [Compound P2-MP] (H-VQQLTKRFSLK(X2)-NH2) | 1.30
CCC1=C(C)c2cc3[nH]c(cc4nc(cc5[nH]c(cc1n2)c(C)c5CCC(=O)N[C@@H](CO)C(=O)NCC(=O)N[C@H](C(=O)N[C@@H](CCC(N)=O)C(=O)N[C@@H](CCC(=O)O)C(=O)N[C@@H](CCC(=O)O)C(=O)N[C@@H](Cc1ccc(O)cc1)C(N)=O)[C@@H](C)O)C(CCC(=O)O)=C4C)c(C)c3CC [MP-P3] (X4-SGTQEEY-NH2) | 1.17
